Measured CC50 at 5 days by item
method-description: in vitro
applied-conditions: human, uninfected MT-4 cells, CC50 (nM), same protocol as Test A, CellTiter-Glo
State the answer as a number, implicitly in nM.

Record excerpt, results attached:
{"molecule": "NC(=O)c1cc(-c2cccnc2[C@H](Cc2cc(F)cc(F)c2)NC(=O)Cn2nc(C(F)(F)F)c3c2CCNC3)ccc1F", "CC50 at 5 days, nM": 35500}
{"molecule": "NC(=O)c1cc(-c2cccnc2[C@H](Cc2cc(F)cc(F)c2)NC(=O)Cn2nc3c(c2C(F)F)C2CC2C3=O)ccc1F (stereo partly drawn) [Example 220B]", "CC50 at 5 days, nM": 39200}
{"molecule": "NC(=O)c1cc(-c2cccnc2[C@H](Cc2cc(F)cc(F)c2)NC(=O)Cn2nc3c(c2C(F)(F)OCc2ccccn2)CCCC3)ccc1F", "CC50 at 5 days, nM": 19900}

The record that follows has no CC50 at 5 days shown yet.
Entry CCc1c(C2CC2)c(C(F)(F)F)nn1CC(=O)N[C@@H](Cc1cc(F)cc(F)c1)c1ncccc1-c1ccc(F)c(C(N)=O)c1 ; CC50 at 5 days = 15500

====

method-description: in vitro
applied-conditions: human, uninfected MT-4 cells, CC50 (nM), same protocol as Test A, CellTiter-Glo
attribute-measured: CC50 at 5 days (nM)
State the answer as a number, implicitly in nM.

Record excerpt, results attached:
{"compound": "COc1cccc(CC(=O)N[C@@H](Cc2cc(F)cc(F)c2)c2ncccc2-c2cccc(C(N)=O)c2)c1 [Example 601]", "observed-measurement": 41900}
{"compound": "N#Cc1nn(CC(=O)N[C@@H](Cc2cc(F)cc(F)c2)c2ncccc2-c2ccc(F)c(C(N)=O)c2)cc1C1CC1 [Example 337]", "observed-measurement": 27900}
{"compound": "NC(=O)c1cccc(-c2cccnc2[C@H](Cc2cc(F)cc(F)c2)NC(=O)Cc2cccc(Cl)c2)c1 [Example 510]", "observed-measurement": 35900}
{"compound": "CCC(C(=O)N[C@@H](Cc1cc(F)cc(F)c1)c1ncccc1-c1ccc(F)c(C(N)=O)c1)n1nc(C(F)(F)F)c2c1CCCC2 (stereo partly shown) [Example 504E]", "observed-measurement": 12800}

Entry O=C(Cc1c[nH]c2ccc(F)cc12)N[C@@H](Cc1cc(F)cc(F)c1)c1ncccc1-c1ccc(Cl)cc1 [Example 33] ; CC50 at 5 days = 9750

====

method-description: in vitro
applied-conditions: human, uninfected MT-4 cells, CC50 (nM), same protocol as Test A, CellTiter-Glo
attribute-measured: CC50 at 5 days (nM)
State the answer as a number, implicitly in nM.

Record excerpt, results attached:
{"molecule": "NC(=O)c1cc(-c2cccnc2[C@H](Cc2cc(F)cc(F)c2)NC(=O)Cn2cc(C3=CCCCC3)c(C(F)(F)F)n2)ccc1F [Example 460]", "unit-of-measurement": "nM", "CC50 at 5 days": 8970}
{"molecule": "Cc1ccccc1-c1ccnc(C(Cc2cc(F)cc(F)c2)NC(=O)Cn2nc(C(F)(F)F)c3c2CCCC3)n1 (centres unmarked) [Example 12]", "unit-of-measurement": "nM", "CC50 at 5 days": 8980}
{"molecule": "COc1cc(C)c(-c2cccnc2C(Cc2cc(F)cc(F)c2)NC(=O)Cc2c[nH]c3ccc(O)cc23)c(C)c1 (centres unmarked) [Example 7]", "unit-of-measurement": "nM", "CC50 at 5 days": 17600}
{"molecule": "NC(=O)c1cccc(-c2cccnc2[C@H](Cc2cc(F)cc(F)c2)NC(=O)CC2C(=O)Nc3ccc(F)cc32)c1 (some centres unmarked) [Example 196]", "unit-of-measurement": "nM", "CC50 at 5 days": 29600}
{"molecule": "NC(=O)c1cc(-c2cccnc2[C@H](Cc2cc(F)cc(F)c2)NC(=O)Cn2nc(C(F)(F)F)c3c2C(O)CC3)ccc1F (some centres unmarked) [Example 391]", "unit-of-measurement": "nM", "CC50 at 5 days": 44800}

Entry NC(=O)c1cc(-c2cccnc2[C@H](Cc2cccc(F)c2)NC(=O)Cn2nc(C(F)(F)F)cc2Br)ccc1F [Example 222B] ; CC50 at 5 days = 25600

Entry NC(=O)c1cc(-c2cccnc2C(Cc2cc(F)cc(F)c2)NC(=O)Cn2nc(C(F)F)c3c2C(F)(F)CCC3F)ccc1F (centres unmarked) [Example 390] ; CC50 at 5 days = 21600

Entry NC(=O)c1cc(-c2cccnc2[C@H](Cc2cc(F)cc(F)c2)NC(=O)Cn2nc(C(F)(F)F)c3c2CC(O)CC3)ccc1F (some centres unmarked) [Example 325] ; CC50 at 5 days = 46100

Entry NC(=O)c1cccc(-c2cccnc2[C@H](Cc2cc(F)cc(F)c2)NC(=O)Cc2c[nH]c3cc(F)ccc23)c1 [Example 86] ; CC50 at 5 days = 21400

====

method-description: in vitro
applied-conditions: human, uninfected MT-4 cells, CC50 (nM), same protocol as Test A, CellTiter-Glo
Please note: CC50 at 5 days exactly at 20000 nM is no (0). Only values below 20000 nM get yes (1).

Look over these answered cases.
{"molecule": "O=C(Cn1nc(C(F)F)c2c1C(F)(F)CCC2(F)F)N[C@@H](Cc1cc(F)cc(F)c1)c1ncncc1-c1ccc(Cl)cc1 [Example 524D]", "label-value": "yes (1)"}
{"molecule": "NC(=O)c1cc(-c2cccnc2[C@H](Cc2cc(F)cc(F)c2)NC(=O)Cn2nc(C(F)(F)F)cc2C2=CCCC2)ccc1F [Example 130D]", "label-value": "yes (1)"}
{"molecule": "CCc1cc(C(F)(F)F)nn1CC(=O)N[C@@H](Cc1cc(F)cc(F)c1)c1ncccc1-c1ccc(F)c(C(N)=O)c1 [Example 461]", "label-value": "no (0)"}
{"molecule": "NC(=O)c1cc(-c2cccnc2[C@H](Cc2cc(F)cc(F)c2)NC(=O)Cn2nc(C(F)(F)F)c3c2CCS(=O)(=O)C3)ccc1F [Example 263]", "label-value": "no (0)"}
{"molecule": "NC(=O)c1cc(-c2cccnc2[C@H](Cc2cc(F)cc(F)c2)NC(=O)Cn2cc(C(F)(F)F)nc2CO)ccc1F [Example 437]", "label-value": "no (0)"}
{"molecule": "NC(=O)c1cc(-c2cccnc2[C@H](Cc2cc(F)cc(F)c2)NC(=O)[C@@H]2C[C@@H](OCc3ccccc3)CN2)ccc1F [Example 157]", "label-value": "no (0)"}
{"molecule": "CCC(C(=O)N[C@@H](Cc1cc(F)cc(F)c1)c1ncccc1-c1ccc(F)c(C(N)=O)c1)n1ccc(C(F)(F)F)n1 (single isomer, unassigned) [Example 572B]", "label-value": "no (0)"}
{"molecule": "NC(=O)c1cc(-c2cccnc2[C@H](Cc2cc(F)cc(F)c2)NC(=O)Cn2cnc3cc(Cl)c(Cl)cc32)ccc1F [Example 518]", "label-value": "yes (1)"}
{"molecule": "NC(=O)c1cc(-c2cccnc2[C@H](Cc2cc(F)cc(F)c2)NC(=O)Cn2nc3c(c2C(F)(F)F)CSC3)ccc1F [Example 261]", "label-value": "no (0)"}
{"molecule": "CCC(C(=O)N[C@@H](Cc1cc(F)cc(F)c1)c1ncccc1-c1ccc(F)c(C(N)=O)c1)n1nc(C(F)F)cc1C(F)F (single isomer, unassigned) [Example 483D]", "label-value": "no (0)"}

Please state whether CC50 at 5 days is below 20000 nM for NC(=O)c1cc(-c2cccnc2[C@H](Cc2cc(F)cc(F)c2)NC(=O)Cn2ccc3cc(Cl)ccc32)ccc1F [Example 585] yes (1)

Please state whether CC50 at 5 days is below 20000 nM for CC(=O)Nc1ccc(-c2cccnc2[C@H](Cc2cc(F)cc(F)c2)NC(=O)Cc2c[nH]c3ccc(F)cc23)cc1 [Example 394] no (0)

Please state whether CC50 at 5 days is below 20000 nM for NC(=O)c1cc(-c2cccnc2[C@H](Cc2cc(F)cc(F)c2)NC(=O)Cn2nc(C(F)(F)F)c3c2CCC3O)ccc1F (stereo partly shown) [Example 525] no (0)

Please state whether CC50 at 5 days is below 20000 nM for O=C(Cn1nc(C(F)F)c2c1C(F)(F)C1CC21)N[C@@H](Cc1cc(F)cc(F)c1)c1ncccc1-c1ccc(OC2CC2)cc1 (stereo partly shown) [Example 268] no (0)

Please state whether CC50 at 5 days is below 20000 nM for NC(=O)c1cc(-c2cccnc2[C@H](Cc2cc(F)cc(F)c2)NC(=O)Cn2cc(C(=O)O)c(C(F)(F)F)n2)ccc1F [Example 323] no (0)

Please state whether CC50 at 5 days is below 20000 nM for CS(=O)(=O)n1cc(CC(=O)N[C@@H](Cc2cc(F)cc(F)c2)c2ncccc2-c2ccc(F)c(C(N)=O)c2)c2cc(F)ccc21 [Example 444] yes (1)

Please state whether CC50 at 5 days is below 20000 nM for NC(=O)c1cccc(-c2cccnc2[C@H](Cc2cc(F)cc(F)c2)NC(=O)Cc2c[nH]c3ccc(C(F)(F)F)cc23)c1 [Example 596] yes (1)

Please state whether CC50 at 5 days is below 20000 nM for CCOC(=O)c1nn(CC(=O)N[C@@H](Cc2cc(F)cc(F)c2)c2ncccc2-c2ccc(F)c(C(N)=O)c2)c2c1CC1CC2C1 [Example 81D] yes (1)

Please state whether CC50 at 5 days is below 20000 nM for O=C(Cc1c[nH]c2ccc(O)cc12)N[C@@H](Cc1cc(F)cc(F)c1)c1ncccc1-c1ccccc1 [Example 402] no (0)

Please state whether CC50 at 5 days is below 20000 nM for NC(=O)c1cc(-c2cccnc2[C@H](Cc2cc(F)cc(F)c2)NC(=O)Cn2ccc3ccc(C(F)(F)F)cc32)ccc1F [Example 591] yes (1)

Please state whether CC50 at 5 days is below 20000 nM for CC(C)Oc1ccc(-c2cccnc2[C@H](Cc2cc(F)cc(F)c2)NC(=O)Cn2nc(C(F)(F)F)c3c2CCCC3)cc1 [Example 100] yes (1)

Please state whether CC50 at 5 days is below 20000 nM for CCCCNS(=O)(=O)c1ccc(-c2cccnc2[C@H](Cc2cc(F)cc(F)c2)NC(=O)Cn2nc(C(F)F)c3c2C(F)(F)C2CC32)cc1 (stereo partly shown) [Example 393] no (0)

Please state whether CC50 at 5 days is below 20000 nM for NC(=O)c1cccc(-c2cccnc2[C@H](Cc2cc(F)cc(F)c2)NC(=O)Cn2c(C(F)(F)F)nc3ccc(OC(F)(F)F)cc32)c1 [Example 315] no (0)

Please state whether CC50 at 5 days is below 20000 nM for NC(=O)c1cc(-c2cccnc2[C@H](Cc2cc(F)cc(F)c2)NC(=O)Cn2nc(C(F)(F)OCc3ccccn3)c3c2CCCC3)ccc1OCc1ccccn1 [Example 129] yes (1)

Please state whether CC50 at 5 days is below 20000 nM for Cc1ccc2cc(-c3cccnc3[C@H](Cc3cc(F)cc(F)c3)NC(=O)Cn3nc(C(F)F)c4c3C(F)(F)C3CC43)ccc2n1 (stereo partly shown) [Example 75] yes (1)
